Target Or System: T1, human TL1A extracellular domain with N-terminal HIS and FLAG tag (human, UniProt O95150 72-251)
T1 construct: the whole entry is named; also called TNFSF15
T1 sequence: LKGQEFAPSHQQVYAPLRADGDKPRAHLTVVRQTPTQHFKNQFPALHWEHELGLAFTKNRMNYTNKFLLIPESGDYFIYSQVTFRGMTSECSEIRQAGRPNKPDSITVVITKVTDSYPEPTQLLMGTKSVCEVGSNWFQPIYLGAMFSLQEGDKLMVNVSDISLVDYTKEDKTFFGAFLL
Test Protocol: SPR Run 7, antibody on Protein A, TL1A 5 ug/mL, timepoint 220
Parameter Measured: TL1A Binding Level (Late) (RU)
Answer in RU, number only, no unit symbol.

Which value of TL1A Binding Level (Late) has been reported for 320-561 (antibody, human IgG1, name in Kabat numbering, V domains shown, full-length human IgG1, lambda) VH: QVQLVQSGAEVKKPGASVKVSCKASGYTFTSYDINWVRQAPGQGLEWMGWLNPNSGNTHYAQKFQGRVTMTADRSTSTAYMELSSLRSEDTAVYYCAREVPETAAFEYWGQGTLVTVSS VL: QSVLTQPPSVSGAPGQRVTISCTSSSSDIGAGLGVHWYQQLPGTAPKLLIEGYYNRPSGVPDRFSGSKSGTSASLTITGLLPEDEGDYYCQSYDGTLSALFGGGTKLTVLG in the records?
6

Which value of TL1A Binding Level (Late) has been reported for 320-528 (antibody, human IgG1, name in Kabat numbering, V domains shown, full-length human IgG1, lambda) VH: QVQLVQSGAEVKKPGASVKVSCKASGYTFTSYDINWVRQAPGQGLEWMGWLNPNLGNTGYAQKFQGRVTMTADRSTSTAYMELSSLRSEDTAVYYCAREVPETAAFEYWGQGTLVTVSS VL: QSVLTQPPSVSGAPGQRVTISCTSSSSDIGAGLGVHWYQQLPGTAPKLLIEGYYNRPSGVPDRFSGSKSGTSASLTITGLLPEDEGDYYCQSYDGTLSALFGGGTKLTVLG in the records?
108

Which value of TL1A Binding Level (Late) has been reported for 320-551 (antibody, human IgG1, name in Kabat numbering, V domains shown, full-length human IgG1, lambda) VH: QVQLVQSGAEVKKPGASVKVSCKASGYTFTSYDINWVRQAPGQGLEWMGWLNPNSGNDGYAQKFQGRVTMTADRSTSTAYMELSSLRSEDTAVYYCAREVPETAAFEYWGQGTLVTVSS VL: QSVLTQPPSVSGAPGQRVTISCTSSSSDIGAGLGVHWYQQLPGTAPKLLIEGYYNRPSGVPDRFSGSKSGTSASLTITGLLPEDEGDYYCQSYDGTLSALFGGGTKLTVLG in the records?
36

Which value of TL1A Binding Level (Late) has been reported for 320-567 (antibody, human IgG1, name in Kabat numbering, V domains shown, full-length human IgG1, lambda) VH: QVQLVQSGAEVKKPGASVKVSCKASGYTFTSYDINWVRQAPGQGLEWMGWLNPNSGNTGSAQKFQGRVTMTADRSTSTAYMELSSLRSEDTAVYYCAREVPETAAFEYWGQGTLVTVSS VL: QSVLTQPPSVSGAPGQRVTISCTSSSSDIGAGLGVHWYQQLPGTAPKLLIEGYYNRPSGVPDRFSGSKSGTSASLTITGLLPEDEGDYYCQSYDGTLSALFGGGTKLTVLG in the records?
86

Which value of TL1A Binding Level (Late) has been reported for 320-498 (antibody, human IgG1, name in Kabat numbering, V domains shown, full-length human IgG1, lambda) VH: QVQLVQSGAEVKKPGASVKVSCKASGYTFTSYDINWVRQAPGQGLEWMGWLSPNSGNTGYAQKFQGRVTMTADRSTSTAYMELSSLRSEDTAVYYCAREVPETAAFEYWGQGTLVTVSS VL: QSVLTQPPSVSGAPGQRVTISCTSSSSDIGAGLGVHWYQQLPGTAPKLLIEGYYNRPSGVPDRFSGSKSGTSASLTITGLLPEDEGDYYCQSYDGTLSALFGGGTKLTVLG in the records?
82

Each recorded value in this set is attributed to patent US20170081400A1.
